Every entry's value here was drawn from ChEMBL document CHEMBL3132789.

# Test system: HCT-116
# EXPERIMENT SUMMARY: Cytotoxicity against human HCT116 cells after 72 hrs by [3H]-thymidine uptake assay
# Type: functional, cell-based
Square brackets hold non-standard residues; d marks the D form. Peptide text beside a SMILES is read from it. Phe(4-Br) = N[C@@H](Cc1ccc(Br)cc1)C(=O)O; Phe(4-I) = N[C@@H](Cc1ccc(I)cc1)C(=O)O; Hica(2S) = CC(C)C[C@H](O)C(=O)O
ASSAY ENDPOINT: IC50

molecule="CC(C)C[C@@H]1NC(=O)[C@H](C(C)C)NC(=O)[C@H](CC(C)C)OC(=O)[C@H](CC(C)C)NC(=O)[C@H](Cc2ccc(I)cc2)NC1=O (cyclo(L[Phe(4-I)]L[Hica(2S)]V))" test_system=HCT-116 assay_endpoint=IC50 result="11.3 µg/mL"
molecule="CC(C)C[C@@H]1NC(=O)[C@H](C(C)C)NC(=O)[C@H](CC(C)C)OC(=O)[C@H](CC(C)C)NC(=O)[C@H](Cc2ccc(Br)cc2)NC1=O (cyclo(L[Phe(4-Br)]L[Hica(2S)]V))" test_system=HCT-116 assay_endpoint=IC50 result="4.5 µg/mL"
molecule="CC(C)C[C@@H]1NC(=O)[C@H](Cc2ccc(Br)cc2)NC(=O)[C@H](CC(C)C)NC(=O)[C@H](C(C)C)NC(=O)[C@H](CC(C)C)NC1=O (cyclo([Phe(4-Br)]LLVL))" test_system=HCT-116 assay_endpoint=IC50 result="0.58 µg/mL"
molecule="CC(C)C[C@@H]1NC(=O)[C@H](Cc2ccccc2)NC(=O)[C@H](CC(C)C)NC(=O)[C@H](C(C)C)NC(=O)[C@H](CC(C)C)NC1=O (cyclo(FLLVL))" test_system=HCT-116 assay_endpoint=IC50 result="0.98 µg/mL"
molecule="CC(C)C[C@@H]1NC(=O)[C@H](Cc2ccc(I)cc2)NC(=O)[C@H](CC(C)C)NC(=O)[C@H](C(C)C)NC(=O)[C@H](CC(C)C)NC1=O (cyclo(LLVL[Phe(4-I)]))" test_system=HCT-116 assay_endpoint=IC50 result="1.12 µg/mL"

Now look at this one.
Quick one: IC50 for CC(C)C[C@@H]1NC(=O)[C@H](C(C)C)NC(=O)[C@H](CC(C)C)OC(=O)[C@H](CC(C)C)NC(=O)[C@H](Cc2ccccc2)NC1=O (cyclo(FL[Hica(2S)]VL)) ?
9.8 µg/mL
